Test: NCI Yeast Anticancer Drug Screen. Data for the mec2-1 strain (AID 157)
Details: S. cerevisiae mec2-1 strain, at 50.0 µM, active compounds read high
Compounds without any hit were thinned out: in the full panel of roughly 79,000, 15% have a hit.
In this section we review reported growth inhibition values for a set of compounds.
Quantity name: growth inhibition (%)

INSERT INTO results (compound, test_value) VALUES
  ('COc1ccc(OC2OC(CO)C(OCc3ccccc3)C(OCc3ccccc3)C2OCc2ccccc2)cc1 (configuration not stated)', -11.7),
  ('CCCCCCCCCCCCCCCCCC(=O)O', -17.4),
  ('COC(=O)C1CCCCC1C(=O)OC (configuration not stated)', -14),
  ('CC(C)(C)c1ccc(O)c(C(=O)O)c1', -0.95),
  ('CNC(=O)NNC(=O)NC', -24.6),
  ('O=[N+]([O-])c1c(Nc2ccccc2)ncnc1Nc1ccccc1', -15.9),
  ('O=C(NC(CSC(=O)c1ccccc1)C(=O)O)c1ccccc1 (configuration not stated)', -8.5),
  ('COc1cc(OC(=O)/C=C2/CCC(=O)O2)c2c(c1)OC1OC(=O)CC21 (configuration not stated)', -4.95),
  ('Cc1ccc(-c2c3nc(c(-c4ccc(C)cc4)c4ccc([nH]4)c(-c4ccc(OCC5COC(C)(C)O5)cc4)c4nc(c(-c5ccc(C)cc5)c5ccc2[nH]5)C=C4)C=C3)cc1 (configuration not stated)', -32.9),
  ('CC(=O)C(C(C)=O)C(c1cccnc1)C(C(C)=O)C(C)=O', 0.65),
  ('COc1ccc(NC(=O)CC(=O)N/N=C(/C)c2cc3cc(N=Nc4ccccc4Cl)ccc3oc2=O)cc1', 14.2),
  ('C=CCc1ccc(C)c(C)c1O', 3.55),
  ('O=C(NNC(=O)c1ccc2ccccc2c1)c1ccc(Cl)c(Cl)c1', -23.3),
  ('COc1ccc(/C=C2\N=C(c3ccc([N+](=O)[O-])cc3)OC2=O)cc1Br', 21.6),
  ('O=[N+]([O-])c1ccc(OCCSc2ccccc2)cc1', 33),
  ('COc1c2c(c(OC)c3c(=O)c4ccccc4[nH]c13)OCO2', -8.85),
  ('CC(C)(c1cn(Cc2ccccc2)c2ccccc12)c1cn(Cc2ccccc2)c2ccccc12', 4.2),
  ('O=[N+]1C=CC(=NN=c2ccn([O-])cc2)C=C1', 15.5),
  ('CC1=CC(=O)C(CCC#N)C(C)(C)C1 (configuration not stated)', -17.9),
  ('Nc1[nH]n(-c2ccccc2)c(=O)c1C1c2ccccc2Sc2ccccc21', 11.2),
  ('Cc1cc(C)c(C2=[N+]([O-])ON3CCc4ccccc4C23)c(C)c1 (configuration not stated)', -7.7),
  ('COC1CCC2(C)C3CCC4C(=CCC5C(C)(C)C(OC(C)=O)CCC45C)CC3(C)CCC2C1(C)C (configuration not stated)', -19.4);

###

Assay: NCI Yeast Anticancer Drug Screen. Data for the mec2-1 strain (AID 157)
Conditions: S. cerevisiae mec2-1 strain, at 50.0 µM, active compounds read high
The panel holds about 79,000 compounds, 15% with a hit somewhere; the sample as a whole holds those more often.
Recorded growth inhibition by entry
Quantity name: growth inhibition (%)

INSERT INTO results (molecule, quantity_name, test_value) VALUES
  ('O=c1[nH]c2cc(Cl)ccc2c2cc(Cl)ccc12', 'growth inhibition', 7.6),
  ('NC1=NN(c2c(Cl)cc(Cl)cc2Cl)C(=O)C1', 'growth inhibition', -3.8),
  ('CCc1c[nH]c(C=O)c1CC', 'growth inhibition', -14.1),
  ('O=c1cc(-c2ccc3ccccc3n2)oc2ccccc12', 'growth inhibition', 2.5),
  ('O=C(c1ccc(Cl)c(Cl)c1)N1CCCCC1', 'growth inhibition', -7),
  ('CC(=O)c1cccc(NC(=O)C(=O)C(C(=O)NN)c2ccccc2)c1 (stereo unspecified)', 'growth inhibition', 11.1),
  ('Cc1cc(S(=O)(=O)Nc2nc(N)nc(N3CCCCC3)n2)c(S)cc1Cl', 'growth inhibition', -11.7),
  ('O=c1c2c(-c3cc(-c4ccccc4)nc4[nH]n(-c5ccccc5)c(=O)c34)cc(-c3ccccc3)nc2[nH]n1-c1ccccc1', 'growth inhibition', -6.2),
  ('COc1cc(C(=O)NC2CCc3cc(OC)c(OC)c(OC)c3-c3ccc(OC)c(=O)cc32)cc(OC)c1OC (stereo unspecified)', 'growth inhibition', -9.65),
  ('CC(=O)OCC1OC(n2cnc([N+](=O)[O-])c2Br)C(OC(C)=O)C1OC(C)=O (stereo unspecified)', 'growth inhibition', 15.4),
  ('O=C(O)c1c(-c2ccc(Cl)cc2)c(-c2ccc(Cl)cc2)nn(CCO)c1=O', 'growth inhibition', 25.8);
